I'd appreciate it if you could supply Kd values for the items below.
assaySystem: T1, HER2-Fc (UniProt P04626 23-652)
T1 construct: Coated at 10 µg/ml on ELISA plates; also called HER2 antigen; immobilised HER2 target antigen (ELISA); not shown: Fc part
assayText: ELISA, plates coated with 10 µg/ml HER2-Fc, anti-T7 peroxidase detection
Give bare numbers, in nM.

scFv (TCT) (scFv, Anti-HER2 C6.5 scFv with residual Ser, GSGGSG linker and C-terminal T7 tag; also called cleaved TCT; unmodified scFv (TCT)) scFv: SGSGGSGQVQLVQSGAEVKKPGESLKISCKGSGYSFTSYWIAWVRQMPGKGLEYMGLIYPGDSDTKYSPSFQGQVTISVDKSVSTAYLQWSSLKPSDSAVYFCARHDVGYCSSSNCAAWPEYFQHWGQGTLVTVSSGGGGSGGGGSGGGGSQSVLTQPPSVSAAPGQKVTISCSGSSSNIGNNYVSWYQQLPGTAPKLLIYGHTNRPAGVPDRFSGSKSGTSASLAISGFRSEDEADYYCAAWDDSLSGWVFGGGTKLTVLMASMTGGQQMG	2.5
scFv (TCT)-Cemadotin ADC sample 2 (DAR 8.2) (scFv, Cemadotin on lysine residues, average DAR 8.2 by AAA, also called TCT-Cem ADC2; TCT-Cemadotin conjugate 2) scFv: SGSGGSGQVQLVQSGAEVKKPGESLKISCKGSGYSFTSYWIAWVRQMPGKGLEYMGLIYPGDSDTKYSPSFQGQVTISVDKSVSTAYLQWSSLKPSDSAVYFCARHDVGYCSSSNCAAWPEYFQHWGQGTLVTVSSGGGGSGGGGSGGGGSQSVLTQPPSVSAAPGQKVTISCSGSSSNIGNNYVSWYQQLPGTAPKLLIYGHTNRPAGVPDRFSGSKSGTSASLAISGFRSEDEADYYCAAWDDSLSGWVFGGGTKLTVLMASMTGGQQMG	15.5
scFv (TCT)-Cemadotin ADC sample 1 (DAR 3.9) (scFv, Cemadotin (from Cemadotin-NHS, compound 2) on lysine residues, average DAR 3.9 by AAA, also called TCT-Cem ADC1; TCT-Cemadotin conjugate 1) scFv: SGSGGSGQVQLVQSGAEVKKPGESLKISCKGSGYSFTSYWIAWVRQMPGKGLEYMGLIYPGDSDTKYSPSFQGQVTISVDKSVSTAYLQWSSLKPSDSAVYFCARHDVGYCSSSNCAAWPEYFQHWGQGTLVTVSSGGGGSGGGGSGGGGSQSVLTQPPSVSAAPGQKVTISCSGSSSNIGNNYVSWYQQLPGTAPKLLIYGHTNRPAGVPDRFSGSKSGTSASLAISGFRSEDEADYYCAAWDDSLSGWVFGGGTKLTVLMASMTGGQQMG	3.3

Given the binder scFv (TCT)-Cemadotin ADC sample 3 (DAR 11) (scFv, Cemadotin on all but one of the surface lysine residues (11/12), DAR 10.96 by AAA, also called TCT-Cem ADC3; TCT-Cemadotin conjugate 3) scFv: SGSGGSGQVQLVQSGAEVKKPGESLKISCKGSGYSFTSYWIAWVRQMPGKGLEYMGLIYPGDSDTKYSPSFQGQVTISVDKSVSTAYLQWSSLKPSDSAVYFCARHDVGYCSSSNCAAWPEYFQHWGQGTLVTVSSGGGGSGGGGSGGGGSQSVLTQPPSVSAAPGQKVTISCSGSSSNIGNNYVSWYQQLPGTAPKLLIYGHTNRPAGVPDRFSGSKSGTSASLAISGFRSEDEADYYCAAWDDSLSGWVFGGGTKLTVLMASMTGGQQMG , what is its reported Kd?
27.5
